System: MCF7 complex spheroid growth, % test/control
Assay: Anticancer human tumor MCF7 cell line growth inhibition [Asc]; active means viability on the fitted dose curve at most 10% of control; inactive means the rest;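 further: spheroids exposed to compounds for 7 days; 100% = DMSO vehicle control wells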
Conditions: second compound 0.316 µM; first compound 3 µM
Possible outcomes: class 1 (active), class 0 (inactive)

[[record]]
molecule = "CCN1C(C(=O)NC23CCC(C(=O)O)(CC2)CC3)C(c2cccc(Cl)c2F)C2(C(=O)Nc3cc(Cl)ccc32)C12CCCCC2 (centres undefined) + CNC(C)C(=O)NC1CN(S(=O)(=O)c2cccc(S(=O)(=O)N3CCC4CCC(C(=O)NC(c5ccccc5)c5ccccc5)N4C(=O)C(NC(=O)C(C)NC)C3)c2)CCC2CCC(C(=O)NC(c3ccccc3)c3ccccc3)N2C1=O"
assigned_category = "class 1"

[[record]]
molecule = "Cc1nc(N2CCC3(CC2)COC(C)C3N)c(CO)nc1Sc1ccnc(N)c1Cl (centres undefined) + Cc1c(S(C)(=O)=O)c(-c2cc(F)cc(N3CCN(c4ccc(NS(=O)(=O)c5ccc(NC(CCN6CCC(C(=O)OCCCP(=O)(O)O)CC6)CSc6ccccc6)c(S(=O)(=O)C(F)(F)F)c5)cc4)CC3)c2)c(-c2ccc(Cl)cc2)n1C(C)C"
assigned_category = "class 0"

[[record]]
molecule = "Cc1nc(N2CCC3(CC2)COC(C)C3N)c(CO)nc1Sc1ccnc(N)c1Cl (centres undefined) + CNC(C)C(=O)NC1CN(S(=O)(=O)c2cccc(S(=O)(=O)N3CCC4CCC(C(=O)NC(c5ccccc5)c5ccccc5)N4C(=O)C(NC(=O)C(C)NC)C3)c2)CCC2CCC(C(=O)NC(c3ccccc3)c3ccccc3)N2C1=O"
assigned_category = "class 0"

[[record]]
molecule = "CCN1C(C(=O)NC23CCC(C(=O)O)(CC2)CC3)C(c2cccc(Cl)c2F)C2(C(=O)Nc3cc(Cl)ccc32)C12CCCCC2 (centres undefined) + Cc1c(S(C)(=O)=O)c(-c2cc(F)cc(N3CCN(c4ccc(NS(=O)(=O)c5ccc(NC(CCN6CCC(C(=O)OCCCP(=O)(O)O)CC6)CSc6ccccc6)c(S(=O)(=O)C(F)(F)F)c5)cc4)CC3)c2)c(-c2ccc(Cl)cc2)n1C(C)C"
assigned_category = "class 0"


// provenance: PubChem BioAssay AID1963445
